Test: AP1 Signaling Pathway (AID 357);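 also: ME-180 reporter cells stimulated with EGF at its EC50 level; % is scaled to controls: 0 for no effect and ±100 for the full control effect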
Conditions: ME-180 (cervical carcinoma) AP-1-bla reporter, EGF-induced, beta-lactamase ratio, 5 h; at 17.2 µM (top of the series) unless noted
Inconclusive results are not listed.
attribute measured: activity change, negative = inhibition (%)
One number for each entry, in %.

# query: activity change, negative = inhibition of entry Cc1ccc(-c2ccccc2NC(=O)C2C3C=CC(C3)C2C(=O)O)o1 (stereo unspecified)
-3.25

Can you check COC(=O)[C@@H](N)Cc1ccc(O)cc1 next?
-11

Can you check CCN(CC)Cc1cc(C(C)=O)ccc1OCC(C)C next?
23.1

Can you check Cc1[nH]c2ccc3c(ncn3CCC#N)c2c1C next?
0.919

Can you check Cn1c(=O)c2c(nc(Br)n2CCSc2ncccn2)n(C)c1=O next?
10.3

Can you check OCCN(CCO)c1ncnc2c1sc1nc(N3CCOCC3)c3c(c12)CCCC3 next?
-27.6

Batch: activity change, negative = inhibition for all items listed.
1. COCCNC(=O)C(C#N)c1nc2ccccc2nc1N1CCN(Cc2ccc3c(c2)OCO3)CC1 (stereo unspecified)
2. COc1ccc(/C(O)=C2/C(=O)C(=O)N(CCCN(C)C)C2c2ccco2)cc1Cl (stereo unspecified)
3. Cc1c(N=Cc2c(O)n(C3CCCCC3)c(=O)[nH]c2=O)c(=O)n(-c2ccccc2)n1C
4. COc1ccc2c(c1)n([O-])c1c([n+]2=O)CCC1
5. O=c1c2c3c(sc2n2cnnc2n1C1CCCCC1)CCC3

-20.2
9.29
-6.37
13.4
-5.1
